- testedOn: Endothelial lipase (Homo sapiens)
- Construct: concentrated conditioned medium used as enzyme solution)
- Sequence (Q9Y5X9 21-500): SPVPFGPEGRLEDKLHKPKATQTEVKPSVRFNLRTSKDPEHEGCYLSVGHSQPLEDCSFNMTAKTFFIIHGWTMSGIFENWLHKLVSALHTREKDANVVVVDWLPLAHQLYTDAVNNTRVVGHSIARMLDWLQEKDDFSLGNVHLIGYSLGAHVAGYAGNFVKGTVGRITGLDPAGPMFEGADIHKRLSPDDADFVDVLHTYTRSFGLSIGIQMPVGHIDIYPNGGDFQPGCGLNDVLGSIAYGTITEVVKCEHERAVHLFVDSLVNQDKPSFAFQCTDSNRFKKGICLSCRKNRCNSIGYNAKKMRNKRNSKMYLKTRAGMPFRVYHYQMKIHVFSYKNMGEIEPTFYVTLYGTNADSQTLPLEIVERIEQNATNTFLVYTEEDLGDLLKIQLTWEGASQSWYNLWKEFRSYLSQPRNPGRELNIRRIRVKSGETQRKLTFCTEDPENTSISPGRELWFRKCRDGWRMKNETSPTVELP
- test: EL inhibition assay
- testSettings: values marked * are IC50 values of a mixture of the indicated regioisomers; 37° C., 60 minutes, Bodipy phospholipid substrate
- Procedure: The activity of the compounds of the invention of the formula I was tested in the following enzyme assay system: […] Endothelial lipase is released as secretory protein in high concentration into cell culture medium (conditioned medium) by recombinant cell lines (CHO, HEK293). This is employed as enzyme solution after concentration. […]
pIC50: −log10 of the molar value.
observedProperty: pIC50

Study these solved cases before continuing.
C[C@H](NC(=O)n1nnc2ccccc21)c1ccccc1 ... 6.15
N#Cc1ccc2sc(CNC(=O)n3nnc4ccccc43)cc2c1 ... 6.29
O=C(NCc1ccc(Cl)cc1)n1nnc2ccccc21 ... 6.36

P. C[C@@H](NC(=O)n1nnc2ccccc21)c1ccccc1
Q. Cc1ccsc1CNC(=O)n1nnc2ccccc21
Could you please tell me which of these two has the higher pIC50: P or Q ? Bench note: the answer is the label of the chosen record.
P

a. O=C(NCc1ccc(-c2cccs2)s1)n1nnc2ccccc21
b. Cc1cccc(CNC(=O)n2nnc3ccccc32)c1
Which value of pIC50 is smaller, the one for a or the one for b ? Bench note: the answer is the label of the chosen record.
a
(a: 6.28, b: 7.70)
